pIC50 by entry:
test_target: EgriGOBP2 (Ectropis grisescens)
assay_notes: Fluorescence competitive binding assay (1-NPN displacement) with recombinant EgriGOBP2
test_conditions: cells printed as “-”: IC50 could not be calculated; read-out: EgriGOBP2 IC50 (dash cells)
Procedure: The excitation wavelength was 337 nm, and the emission spectrum ranged from 370 to 550 nm. […] The binding curves were linearized using Scatchard plots, based on fluorescence intensity values relative to the maximum fluorescence emissions. The dissociation constants (Ki) of each ligand were calculated with the following equation: Ki = [IC50]/(1 + [1-NPN]/K1-NPN).
pIC50: −log10 of the molar value.
assay_metric: pIC50

{"smiles": "CCCCCCCCCC=O", "test_value": "< 4.80"}
{"smiles": "CCCCCCCCC=O", "test_value": "< 4.80"}

* * *

test_target: EgriGOBP2 (Ectropis grisescens)
assay_notes: Fluorescence competitive binding assay (1-NPN displacement) with recombinant EgriGOBP2
IC50 by entry:

{"compound": "COC(=O)c1ccccc1O [Methyl salicylate]", "unit_abbreviation": "µM", "comparative_sign": "=", "IC50": 17.3}
{"compound": "O=Cc1ccccc1", "unit_abbreviation": "µM", "comparative_sign": ">", "IC50": 16}
{"compound": "C=CCc1ccc(OC)cc1", "unit_abbreviation": "µM", "comparative_sign": "=", "IC50": 8.1}
{"compound": "Cc1ccc(C(C)C)cc1O", "unit_abbreviation": "µM", "comparative_sign": "=", "IC50": 23.6}
{"compound": "C=CCc1ccc(O)c(OC)c1", "unit_abbreviation": "µM", "comparative_sign": "=", "IC50": 9.28}
{"compound": "O=C/C=C/c1ccccc1", "unit_abbreviation": "µM", "comparative_sign": ">", "IC50": 16}
{"compound": "CC(C)=CCCC(C)=CC=O (mixture of isomers)", "unit_abbreviation": "µM", "comparative_sign": "=", "IC50": 9.12}
{"compound": "C=CC(C)(O)CCC=C(C)C (stereo not shown)", "unit_abbreviation": "µM", "comparative_sign": "=", "IC50": 11.9}
{"compound": "OCc1ccccc1", "unit_abbreviation": "µM", "comparative_sign": "=", "IC50": 30}
{"compound": "CCC/C=C/C=O", "unit_abbreviation": "µM", "comparative_sign": ">", "IC50": 16}

* * *

test_target: EgriGOBP2 (Ectropis grisescens)
assay_notes: Fluorescence competitive binding assay (1-NPN displacement) with recombinant EgriGOBP2
test_conditions: Ki = [IC50]/(1 + [1-NPN]/K1-NPN); 2 µM EgriGOBP2/1-NPN mixture, pH 7.4; read-out: EgriGOBP2 Ki

{"compound": "CC/C=C\\CCOC(=O)CCC [Cis-3-hexenyl tyrate]", "test_target": "EgriGOBP2 (Ectropis grisescens)", "comparative_sign": "=", "Ki (µM)": 18.6}
{"compound": "CC12CCC(CC1)C(C)(C)O2", "test_target": "EgriGOBP2 (Ectropis grisescens)", "comparative_sign": "<", "Ki (µM)": 10}
{"compound": "CC(=O)OC/C=C(\\C)CCC=C(C)C [Geranyl acetate]", "test_target": "EgriGOBP2 (Ectropis grisescens)", "comparative_sign": "=", "Ki (µM)": 22.3}
{"compound": "C=CC(O)CC (stereo not shown)", "test_target": "EgriGOBP2 (Ectropis grisescens)", "comparative_sign": "=", "Ki (µM)": 40.6}
{"compound": "CC(=O)OCc1ccccc1 [Benzyl acetate]", "test_target": "EgriGOBP2 (Ectropis grisescens)", "comparative_sign": "=", "Ki (µM)": 13}
{"compound": "CCCCCCO", "test_target": "EgriGOBP2 (Ectropis grisescens)", "comparative_sign": "=", "Ki (µM)": 21.2}
{"compound": "CC/C=C\\CCOC(C)=O [Cis-3-hexenyl acetate]", "test_target": "EgriGOBP2 (Ectropis grisescens)", "comparative_sign": "=", "Ki (µM)": 13.1}

* * *

test_target: EgriGOBP2 (Ectropis grisescens, UniProt A0A977IVV0)
Sequence (A0A977IVV0 entry or part of it): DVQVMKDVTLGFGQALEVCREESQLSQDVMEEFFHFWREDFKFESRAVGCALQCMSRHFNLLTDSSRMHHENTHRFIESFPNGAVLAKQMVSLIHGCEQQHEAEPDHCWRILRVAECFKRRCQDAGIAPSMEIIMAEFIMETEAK
assay_notes: Fluorescence competitive binding assay (1-NPN displacement) with recombinant EgriGOBP2
test_conditions: EgriGOBP2 Ki, Ki = [IC50]/(1 + [1-NPN]/K1-NPN); 2 µM EgriGOBP2/1-NPN mixture, pH 7.4
pKi: −log10 of the molar value.
assay_metric: pKi

{"compound": "CC(C)=CCCC(C)=CC=O (mixture of isomers)", "assay_metric": "pKi", "test_value": 5.08}
{"compound": "C=CCc1ccc(OC)cc1", "assay_metric": "pKi", "test_value": 5.14}
{"compound": "C=CC(C)(O)CCC=C(C)C (stereo not shown)", "assay_metric": "pKi", "test_value": 4.97}
{"compound": "Cc1ccc(C(C)C)cc1O", "assay_metric": "pKi", "test_value": 4.67}
{"compound": "C=CCc1ccc(O)c(OC)c1", "assay_metric": "pKi", "test_value": 5.08}
{"compound": "OCc1ccccc1", "assay_metric": "pKi", "test_value": 4.57}
{"compound": "COC(=O)c1ccccc1O [Methyl salicylate]", "assay_metric": "pKi", "test_value": 4.81}

* * *

test_target: EgriGOBP2 (Ectropis grisescens, UniProt A0A977IVV0)
assay_notes: Fluorescence competitive binding assay (1-NPN displacement) with recombinant EgriGOBP2
test_conditions: “-”: no detectable Ki; read-out: EgriGOBP2 Ki (dash cells)
pKi: −log10 of the molar value.

{"smiles": "CCCCCCCCCC=O", "pKi": "< 4.84"}
{"smiles": "CCCCCCCCC=O", "pKi": "< 4.84"}

* * *

test_target: EgriGOBP2 (Ectropis grisescens, UniProt A0A977IVV0)
assay_notes: Binding of fluorescent probe 1-NPN to recombinant EgriGOBP2 (binding curve, Scatchard plot)
test_conditions: 2 µM protein in 20 mM Tris-HCl pH 7.4, 1-NPN 0–16 µM, read-out: dissociation constant (Kd) of 1-NPN
pKd: −log10 of the molar value.

{"smiles": "c1ccc(Nc2cccc3ccccc23)cc1", "test_target": "EgriGOBP2 (Ectropis grisescens, UniProt A0A977IVV0)", "pKd": 5.03}

* * *

test_target: EgriGOBP2 (Ectropis grisescens)
assay_notes: Fluorescence competitive binding assay (1-NPN displacement) with recombinant EgriGOBP2
test_conditions: EgriGOBP2 Ki (dash cells), “-”: no detectable Ki
Method: The excitation wavelength was 337 nm, and the emission spectrum ranged from 370 to 550 nm. […] The binding curves were linearized using Scatchard plots, based on fluorescence intensity values relative to the maximum fluorescence emissions. The dissociation constants (Ki) of each ligand were calculated with the following equation: Ki = [IC50]/(1 + [1-NPN]/K1-NPN).

{"smiles": "O=Cc1ccccc1", "Ki": "> 14.4 µM"}
{"smiles": "O=C/C=C/c1ccccc1", "Ki": "> 14.4 µM"}
{"smiles": "CCC/C=C/C=O", "Ki": "> 14.4 µM"}

* * *

test_target: EgriGOBP2 (Ectropis grisescens)
assay_notes: Fluorescence competitive binding assay (1-NPN displacement) with recombinant EgriGOBP2
test_conditions: Ki = [IC50]/(1 + [1-NPN]/K1-NPN); 2 µM EgriGOBP2/1-NPN mixture, pH 7.4; read-out: EgriGOBP2 Ki

{"compound": "C=CC(C)(O)CCC=C(C)CCC=C(C)C (mixture of isomers) [Nerolidol]", "Ki (µM)": 7.93}
{"compound": "C=C(C)[C@@H]1CC=C(C)C(=O)C1 [L(-)-carvone]", "Ki (µM)": 11.6}
{"compound": "C=CC(C)=CCC=C(C)C [Ocimene]", "Ki (µM)": 18}
{"compound": "CC/C=C\\CCOC(=O)CCCCC [Cis-3-hexenyl caproate]", "Ki (µM)": 14}

Data origin, for the record: paper PMC12110804
